assay: Metabolic stability in rat lung S9 fraction assessed as half life measured upto 120 mins in presence of NADPH by LC-MS/MS analysis; format: ADME, subcellular
endpoint name: half-life

> print(dat)
                                   molecule  assay.result
1  NC(=O)c1nc(-c2cccc(O)c2)nc2c1[nH]c(=O)n2C1CCN(Cc2ccccc2)C1 (configuration not stated)      > 8.33 h

Proceeding to the next molecule to report its half-life.
Request: Can you look up the measured half-life of CC(Cc1ccc(Cl)c(Cl)c1)n1c(=O)[nH]c2c(C(N)=O)nc(-c3cccc(O)c3)nc21 (configuration not stated) for me?
Result: > 8.33 h

----------
target: Phosphatidylinositol 4,5-bisphosphate 3-kinase catalytic subunit alpha isoform (Homo sapiens); experiment: Inhibition of recombinant human PI3Kalpha using l-a-phosphatidylinositol sodium salt and l-a-phosphatidyl-L-serine as substrate incubated for 60 mins in presence of ATP by ADP-glo kinase assay
Sequence (P42336 whole entry, canonical isoform): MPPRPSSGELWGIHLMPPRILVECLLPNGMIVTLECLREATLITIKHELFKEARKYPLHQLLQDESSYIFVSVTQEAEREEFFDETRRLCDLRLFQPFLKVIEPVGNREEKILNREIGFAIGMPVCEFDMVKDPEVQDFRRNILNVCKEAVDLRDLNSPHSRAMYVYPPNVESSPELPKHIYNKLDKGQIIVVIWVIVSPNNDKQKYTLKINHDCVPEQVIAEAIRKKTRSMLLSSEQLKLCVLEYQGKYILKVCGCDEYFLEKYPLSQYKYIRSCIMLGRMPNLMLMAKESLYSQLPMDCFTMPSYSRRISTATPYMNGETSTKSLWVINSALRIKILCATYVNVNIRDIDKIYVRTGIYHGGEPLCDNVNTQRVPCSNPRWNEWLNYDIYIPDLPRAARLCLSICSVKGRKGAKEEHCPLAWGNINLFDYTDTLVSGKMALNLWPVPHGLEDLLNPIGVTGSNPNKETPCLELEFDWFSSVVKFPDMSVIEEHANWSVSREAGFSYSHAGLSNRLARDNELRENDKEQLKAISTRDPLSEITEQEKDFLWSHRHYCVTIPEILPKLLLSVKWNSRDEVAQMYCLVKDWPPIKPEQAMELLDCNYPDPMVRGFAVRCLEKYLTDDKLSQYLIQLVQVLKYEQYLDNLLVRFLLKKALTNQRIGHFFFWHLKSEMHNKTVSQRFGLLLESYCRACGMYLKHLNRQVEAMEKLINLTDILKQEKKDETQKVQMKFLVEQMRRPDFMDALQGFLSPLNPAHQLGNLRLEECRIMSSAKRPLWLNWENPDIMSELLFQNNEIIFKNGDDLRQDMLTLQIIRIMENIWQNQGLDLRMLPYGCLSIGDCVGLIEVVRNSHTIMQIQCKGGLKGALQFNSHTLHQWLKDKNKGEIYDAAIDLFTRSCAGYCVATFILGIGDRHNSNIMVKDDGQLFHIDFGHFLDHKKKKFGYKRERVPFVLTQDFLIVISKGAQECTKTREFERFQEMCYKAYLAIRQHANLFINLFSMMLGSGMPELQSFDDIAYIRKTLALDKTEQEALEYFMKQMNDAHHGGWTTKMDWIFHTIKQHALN
pKi: −log10 of the molar value.
endpoint name: pKi

> print(dat)
                                   compound  assay.result
1  NC(=O)c1nc(-c2cccc(O)c2)nc2c1[nH]c(=O)n2C1CCN(Cc2ccccc2)C1 (centres undefined)          6.90
2  NC(=O)c1nc(-c2cccc(O)c2)nc2c1[nH]c(=O)n2C1CC1c1ccccc1 (centres undefined)          6.80

----------
experiment: Microsomal stability in rat liver microsomes assessed as clearance at 0.5 uM incubated for 30 mins; format: ADME, Microsome; conditions: read-out: CLH
endpoint name: microsomal CLint at 0.5 µM (µL/min/mg)

[P] CC(Cc1ccc(Cl)c(Cl)c1)n1c(=O)[nH]c2c(C(N)=O)nc(-c3cccc(O)c3)nc21 (configuration not stated)
[Q] NC(=O)c1nc(-c2cccc(O)c2)nc2c1[nH]c(=O)n2C1CCN(Cc2ccccc2)C1 (configuration not stated)
Request: microsomal CLint at 0.5 µM comparison. Which is larger, P or Q ? Pick one and reply with its label.
Result: Q

----------
molecular target: Phosphatidylinositol 4,5-bisphosphate 3-kinase catalytic subunit gamma isoform (Homo sapiens); experiment: Inhibition of recombinant human PI3Kgamma using l-a-phosphatidylinositol sodium salt and l-a-phosphatidyl-L-serine as substrate incubated for 60 mins in presence of ATP by ADP-glo kinase assay
Sequence (P48736 whole entry, canonical isoform): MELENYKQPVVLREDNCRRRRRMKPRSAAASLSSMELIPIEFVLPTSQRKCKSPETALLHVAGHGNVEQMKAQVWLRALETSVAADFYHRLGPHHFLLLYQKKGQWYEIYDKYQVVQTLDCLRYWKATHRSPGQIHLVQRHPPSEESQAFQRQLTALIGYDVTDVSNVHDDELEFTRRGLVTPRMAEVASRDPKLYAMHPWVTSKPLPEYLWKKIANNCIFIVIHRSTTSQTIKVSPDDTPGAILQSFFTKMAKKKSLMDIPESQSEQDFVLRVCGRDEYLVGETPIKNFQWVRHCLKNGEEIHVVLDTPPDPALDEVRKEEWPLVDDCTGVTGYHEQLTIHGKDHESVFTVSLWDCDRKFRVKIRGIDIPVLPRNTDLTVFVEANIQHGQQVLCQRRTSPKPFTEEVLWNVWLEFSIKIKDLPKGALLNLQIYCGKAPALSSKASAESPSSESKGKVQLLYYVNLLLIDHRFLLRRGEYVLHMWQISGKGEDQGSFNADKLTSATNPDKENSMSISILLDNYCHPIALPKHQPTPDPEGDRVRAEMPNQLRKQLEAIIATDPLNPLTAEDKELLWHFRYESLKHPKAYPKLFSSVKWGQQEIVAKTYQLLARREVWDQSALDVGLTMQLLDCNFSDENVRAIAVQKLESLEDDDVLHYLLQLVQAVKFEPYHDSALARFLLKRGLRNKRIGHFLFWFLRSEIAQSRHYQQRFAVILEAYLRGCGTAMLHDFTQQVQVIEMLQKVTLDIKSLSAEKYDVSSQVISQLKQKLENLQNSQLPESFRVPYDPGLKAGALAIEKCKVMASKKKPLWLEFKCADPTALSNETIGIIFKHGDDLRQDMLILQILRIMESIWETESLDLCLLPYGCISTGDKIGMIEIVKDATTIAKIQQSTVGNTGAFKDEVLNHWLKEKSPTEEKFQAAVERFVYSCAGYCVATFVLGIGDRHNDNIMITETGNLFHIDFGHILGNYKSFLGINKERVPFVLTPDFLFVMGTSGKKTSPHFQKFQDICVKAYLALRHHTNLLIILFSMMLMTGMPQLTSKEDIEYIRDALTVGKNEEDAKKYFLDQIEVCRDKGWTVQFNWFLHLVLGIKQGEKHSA
endpoint name: Ki (nM)

> print(dat)
                                   compound  endpoint.name  assay.result
1  NC(=O)c1nc(-c2cccc(O)c2)nc2c1[nH]c(=O)n2CC1CCS(=O)(=O)C1 (stereo not drawn)             Ki          1260
2  NC(=O)c1nc(-c2cccc(O)c2)nc2c1[nH]c(=O)n2C1CCN(Cc2ccccc2)C1 (stereo not drawn)             Ki           316
3  NC(=O)c1nc(-c2cccc(O)c2)nc2c1[nH]c(=O)n2-c1ccc(N2CCOCC2)cc1             Ki           126

[1] CC(Cc1ccc(Cl)c(Cl)c1)n1c(=O)[nH]c2c(C(N)=O)nc(-c3cccc(O)c3)nc21 (stereo not drawn)
[2] NC(=O)c1nc(-c2cccc3[nH]ncc23)nc2c1[nH]c(=O)n2CCc1ccc(Cl)c(Cl)c1
[3] NC(=O)c1nc(-c2cccc(O)c2)nc2c1[nH]c(=O)n2C1CC1c1ccccc1 (stereo not drawn)
[4] NC(=O)c1nc(-c2cccc(O)c2)nc2c1[nH]c(=O)n2CC1CCOC1 (stereo not drawn)
Request: Rank by Ki (largest to smallest). Write the labels in rank order as requested.
Result: 2, 1, 4, 3
(2: 1580 nM, 1: 398 nM, 4: 251 nM, 3: 158 nM)

----------
test: Protein binding in human plasma by rapidfire high-throughput MS analysis; format: ADME, cell-free; details: read-out: PPB (converted)
endpoint name: fraction unbound

> print(dat)
                                   compound     endpoint.name  assay.result
1  CC[C@H](Nc1ncnc2[nH]cnc12)c1nc2cccc(F)c2c(=O)n1-c1ccccc1 [IDELALISIB]  fraction unbound         0.031
2  NC(=O)c1nc(-c2cccc(O)c2)nc2c1[nH]c(=O)n2C1CCN(Cc2ccccc2)C1 (stereo not drawn)  fraction unbound         0.032

----------
molecular target: Phosphatidylinositol 4,5-bisphosphate 3-kinase catalytic subunit alpha isoform (Homo sapiens); assay: Inhibition of recombinant human PI3Kalpha using l-a-phosphatidylinositol sodium salt and l-a-phosphatidyl-L-serine as substrate incubated for 60 mins in presence of ATP by ADP-glo kinase assay
pKi: −log10 of the molar value.
endpoint name: pKi

Sample records with pKi:
> print(dat)
                                   molecule  assay.result
1  NC(=O)c1nc(-c2cccc(O)c2)nc2c1[nH]c(=O)n2CC1CCS(=O)(=O)C1 (stereo not given)          7.00
2  NC(=O)c1nc(-c2cccc(O)c2)nc2c1[nH]c(=O)n2CC1CCOC1 (stereo not given)          7.40

[A] NC(=O)c1nc(-c2cccc(O)c2)nc2c1[nH]c(=O)n2-c1ccc(N2CCOCC2)cc1
[B] NC(=O)c1nc(-c2cccc(O)c2)nc2c1[nH]c(=O)n2-c1ccc(F)cc1
[C] CC(Cc1ccc(Cl)c(Cl)c1)n1c(=O)[nH]c2c(C(N)=O)nc(-c3cccc(O)c3)nc21 (stereo not given)
Request: Rank by pKi (largest to smallest). Write the labels in rank order as requested.
Result: A, B, C
(A: 7.40, B: 7.10, C: 6.70)

----------
molecular target: Phosphatidylinositol 4,5-bisphosphate 3-kinase catalytic subunit beta isoform (Homo sapiens); assay: Inhibition of recombinant human PI3Kbeta using l-a-phosphatidylinositol sodium salt and l-a-phosphatidyl-L-serine as substrate incubated for 60 mins in presence of ATP by ADP-glo kinase assay
Sequence (P42338 whole entry, canonical isoform): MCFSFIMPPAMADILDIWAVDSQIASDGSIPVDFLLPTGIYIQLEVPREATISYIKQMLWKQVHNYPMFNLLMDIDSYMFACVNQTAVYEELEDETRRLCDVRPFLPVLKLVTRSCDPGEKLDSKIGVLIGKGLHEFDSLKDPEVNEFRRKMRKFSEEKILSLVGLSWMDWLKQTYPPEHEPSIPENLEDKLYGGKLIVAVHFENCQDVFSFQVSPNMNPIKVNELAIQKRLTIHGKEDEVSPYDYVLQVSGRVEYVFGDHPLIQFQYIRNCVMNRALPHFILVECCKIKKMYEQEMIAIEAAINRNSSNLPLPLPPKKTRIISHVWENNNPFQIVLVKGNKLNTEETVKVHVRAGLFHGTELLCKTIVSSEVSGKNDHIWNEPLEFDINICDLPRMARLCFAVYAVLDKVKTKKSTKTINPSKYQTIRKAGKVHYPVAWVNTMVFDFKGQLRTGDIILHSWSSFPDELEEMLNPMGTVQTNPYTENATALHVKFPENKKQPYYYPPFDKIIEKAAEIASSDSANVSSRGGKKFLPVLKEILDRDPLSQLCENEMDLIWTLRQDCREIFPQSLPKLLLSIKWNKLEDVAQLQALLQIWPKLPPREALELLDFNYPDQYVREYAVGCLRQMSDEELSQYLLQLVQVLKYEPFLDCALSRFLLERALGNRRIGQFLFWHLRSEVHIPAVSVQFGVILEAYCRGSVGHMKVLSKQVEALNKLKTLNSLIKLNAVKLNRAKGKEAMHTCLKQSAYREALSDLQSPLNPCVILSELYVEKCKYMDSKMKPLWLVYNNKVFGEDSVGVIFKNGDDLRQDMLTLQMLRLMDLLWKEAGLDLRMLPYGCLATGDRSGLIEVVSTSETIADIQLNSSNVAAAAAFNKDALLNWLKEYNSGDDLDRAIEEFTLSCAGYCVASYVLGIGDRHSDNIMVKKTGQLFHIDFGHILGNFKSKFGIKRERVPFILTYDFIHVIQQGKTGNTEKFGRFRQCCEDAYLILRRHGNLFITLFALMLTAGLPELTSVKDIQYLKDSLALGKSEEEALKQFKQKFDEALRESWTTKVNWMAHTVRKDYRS
endpoint name: Ki (nM)

Sample records with Ki:
> print(dat)
                                   compound  endpoint.name  assay.result
1  CC(Cc1ccc(Cl)c(Cl)c1)n1c(=O)[nH]c2c(C(N)=O)nc(-c3cccc(O)c3)nc21 (configuration not stated)             Ki          6.31
2  NC(=O)c1nc(-c2cccc(O)c2)nc2c1[nH]c(=O)n2C1CC1c1ccccc1 (configuration not stated)             Ki           158

[A] NC(=O)c1nc(-c2cccc(O)c2)nc2c1[nH]c(=O)n2-c1ccc(N2CCOCC2)cc1
[B] NC(=O)c1nc(-c2cccc(O)c2)nc2c1[nH]c(=O)n2C1CCN(Cc2ccccc2)C1 (configuration not stated)
[C] NC(=O)c1nc(-c2cccc(O)c2)nc2c1[nH]c(=O)n2CC1CCOC1 (configuration not stated)
[D] NC(=O)c1nc(-c2cccc(O)c2)nc2c1[nH]c(=O)n2CC1CCS(=O)(=O)C1 (configuration not stated)
Request: Let's sort these by Ki, smallest first. Go ahead? Write the labels in rank order as requested.
Result: B, A, C, D
(B: 20 nM, A: 158 nM, C: 316 nM, D: 631 nM)

----------
experiment: Apparent permeability across basolateral side to apical side in human Caco-2 cells by […] assay; assay type: ADME, cell-based
endpoint name: Papp B→A (×10⁻⁶ cm/s)

[A] NC(=O)c1nc(-c2cccc(O)c2)nc2c1[nH]c(=O)n2C1CCN(Cc2ccccc2)C1 (configuration not stated)
[B] CC[C@H](Nc1ncnc2[nH]cnc12)c1nc2cccc(F)c2c(=O)n1-c1ccccc1
Request: Papp B→A comparison. Which is larger, A or B ? Pick one and reply with its label.
Result: B

----------
assay: Metabolic stability in human lung S9 fraction assessed as half life measured upto 120 mins in presence of NADPH by LC-MS/MS analysis; assay type: ADME, subcellular
endpoint name: half-life (h)
Give the value in h but do not write h after it.

Request: Can you look up the measured half-life of NC(=O)c1nc(-c2cccc(O)c2)nc2c1[nH]c(=O)n2C1CCN(Cc2ccccc2)C1 (configuration not stated) for me?
Result: 2.36

----------
assay: Protein binding in rat lung by rapidfire high-throughput MS analysis; format: ADME, tissue-based; settings: read-out: PB (converted)
endpoint name: fraction unbound

[a] CC[C@H](Nc1ncnc2[nH]cnc12)c1nc2cccc(F)c2c(=O)n1-c1ccccc1
[b] NC(=O)c1nc(-c2cccc(O)c2)nc2c1[nH]c(=O)n2C1CCN(Cc2ccccc2)C1 (stereo not drawn)
Request: Smaller fraction unbound value, a vs b ? Pick one and reply with its label.
Result: b
(b: 0.021, a: 0.139)

----------
assay: Metabolic stability in human hepatocytes assessed as clearance measured per 10^6 cells at 0.5 uM incubated for 180 mins; type: ADME, cell-based, Hepatocyte; details: read-out: CLH
endpoint name: hepatocyte CLint at 0.5 µM (µL/min/1e6 cells)

[I] CC(Cc1ccc(Cl)c(Cl)c1)n1c(=O)[nH]c2c(C(N)=O)nc(-c3cccc(O)c3)nc21 (configuration not stated)
[II] NC(=O)c1nc(-c2cccc(O)c2)nc2c1[nH]c(=O)n2C1CCN(Cc2ccccc2)C1 (configuration not stated)
Request: hepatocyte CLint at 0.5 µM comparison. Which is larger, I or II ? Pick one and reply with its label.
Result: I
(I: 79 µL/min/1e6 cells, II: 55 µL/min/1e6 cells)
